target_entity: HLA-A*02:19
method: IEDB peptide-MHC binding, purified MHC/competitive/fluorescence; filed as Kd, often an IC50 or EC50 that approximates it; bounds were set here for any values at or beyond the usual limits of such assays
stated_conditions: source organism: Influenza A virus (A/Gf/HK/SSP607/2003(H9N2))

| sequence_code | Kd |
| --- | --- |
| AMITYITRK | ≥ 20 µM |

---

target_entity: HLA-B*45:06
method: IEDB peptide-MHC binding, purified MHC/competitive/fluorescence; filed as Kd, often an IC50 or EC50 that approximates it; bounds were set here for any values at or beyond the usual limits of such assays
stated_conditions: source organism: Yellow fever virus
pKd: −log10 of the molar value.

| sequence_code | pKd |
| --- | --- |
| LEDGIYGIF | ≤ 5.30 |

// data source = the Immune Epitope Database (IEDB)
